Numbers sourced from patent US20200131274A1.

Below, each entry is listed with its recorded IC50 Toxin (nM), DU145 PSMA cells, 48 h.
# ASSAY_SYSTEM: human prostate specific membrane antigen (PSMA), full-length, on cells (human, UniProt Q04609 1-750)
# Sequence (Q04609 whole entry): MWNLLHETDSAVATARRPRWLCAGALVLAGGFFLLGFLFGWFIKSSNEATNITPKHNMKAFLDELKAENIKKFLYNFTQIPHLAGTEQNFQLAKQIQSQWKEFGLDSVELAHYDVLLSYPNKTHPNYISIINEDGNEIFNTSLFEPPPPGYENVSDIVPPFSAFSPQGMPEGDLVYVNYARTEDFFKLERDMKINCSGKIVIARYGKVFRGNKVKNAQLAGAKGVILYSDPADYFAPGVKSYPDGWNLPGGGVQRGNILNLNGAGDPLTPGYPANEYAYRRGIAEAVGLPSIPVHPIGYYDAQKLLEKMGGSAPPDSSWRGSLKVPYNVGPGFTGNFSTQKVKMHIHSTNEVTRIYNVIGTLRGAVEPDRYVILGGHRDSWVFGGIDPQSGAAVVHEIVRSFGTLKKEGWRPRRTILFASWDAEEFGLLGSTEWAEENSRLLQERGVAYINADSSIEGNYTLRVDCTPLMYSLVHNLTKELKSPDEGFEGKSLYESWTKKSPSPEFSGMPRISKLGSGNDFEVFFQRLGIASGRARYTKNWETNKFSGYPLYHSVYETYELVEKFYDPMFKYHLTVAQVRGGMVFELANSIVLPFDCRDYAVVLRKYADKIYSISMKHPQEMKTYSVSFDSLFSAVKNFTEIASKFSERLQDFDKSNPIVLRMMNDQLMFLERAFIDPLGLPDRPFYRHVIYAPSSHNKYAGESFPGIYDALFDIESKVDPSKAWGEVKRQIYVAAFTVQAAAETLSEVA
# METHOD: cell-based or functional assay
I'd appreciate it if you included the unit after the number.

Some solved cases for reference:
binder="HiPEG A-2-A-His6 val-cit-PAB-MMAE (VHH, HiPEG val-cit-PAB-MMAE attached via the C-terminal His6-tag, DAR 1) EVQLVESGGGVVQPGRSLRLSCAASGFSFSGYGMHWVRQAPGKGLEWVAYISYDGSNKYYADSVKGRFTISRDNSKNTLYLQMNSLRAEDTAVYYCAKDPAWGLRLGESSSYDFDIWGQGTMVTVSSGGGGSGGGGSGGGGSGGGGSGGGGSGGGGSEVQLVESGGGVVQPGRSLRLSCAASGFSFSGYGMHWVRQAPGKGLEWVAYISYDGSNKYYADSVKGRFTISRDNSKNTLYLQMNSLRAEDTAVYYCAKDPAWGLRLGESSSYDFDIWGQGTMVTVSSAAAHHHHHH" recorded_measurement="0.32 nM"
binder="HiPEG A-His6 val-cit-PAB-MMAE (VHH, HiPEG val-cit-PAB-MMAE attached via the C-terminal His6-tag, DAR 1) VHH: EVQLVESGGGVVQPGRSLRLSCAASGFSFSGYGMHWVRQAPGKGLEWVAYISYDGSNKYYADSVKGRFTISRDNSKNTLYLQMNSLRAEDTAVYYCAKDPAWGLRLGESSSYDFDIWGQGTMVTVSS" recorded_measurement="1.16 nM"
binder="HiPEG B-His6 val-cit-PAB-MMAE (VHH, HiPEG val-cit-PAB-MMAE attached via the C-terminal His6-tag, DAR 0.9) VHH: EVQLLESGGGLVQPGGSLRLSCAASGFSFSSYAMSWVRQAPGKGLEWVSSIGENDGTTDYADSVKGRFTISRDNSKSMLYLQMNSLRVEDTAVYYCVKDGVHWGQGTLVTVSS" recorded_measurement="2.43 nM"
binder="HiPEG C-His6 val-cit-PAB-MMAE (VHH, HiPEG val-cit-PAB-MMAE attached via the C-terminal His6-tag, DAR 1) VHH: EVQLVESGGGVVQPGRSLRLSCAASGFPLISYGMHWVRQAPGKGLEWVAFMTYDGSNRYYADSVKGRFTISRDNSKNTLYLQMNSLRDEDTALYYCARDRIVGGRVPDAFDIWGQGTMVTVSS" recorded_measurement="5.21 nM"
binder="HiPEG A-2-B-His6 val-cit-PAB-MMAE (bispecific antibody, HiPEG val-cit-PAB-MMAE attached via the C-terminal His6-tag, DAR 1) EVQLVESGGGVVQPGRSLRLSCAASGFSFSGYGMHWVRQAPGKGLEWVAYISYDGSNKYYADSVKGRFTISRDNSKNTLYLQMNSLRAEDTAVYYCAKDPAWGLRLGESSSYDFDIWGQGTMVTVSSGGGGSGGGGSGGGGSGGGGSGGGGSGGGGSEVQLLESGGGLVQPGGSLRLSCAASGFSFSSYAMSWVRQAPGKGLEWVSSIGENDGTTDYADSVKGRFTISRDNSKSMLYLQMNSLRVEDTAVYYCVKDGVHWGQGTLVTVSSAAAHHHHHH" recorded_measurement="0.37 nM"

// IC50 Toxin (nM), DU145 PSMA cells, 48 h value for HiPEG B-1-A-His6 val-cit-PAB-MMAE (bispecific antibody, HiPEG val-cit-PAB-MMAE attached via the C-terminal His6-tag, DAR 1) EVQLLESGGGLVQPGGSLRLSCAASGFSFSSYAMSWVRQAPGKGLEWVSSIGENDGTTDYADSVKGRFTISRDNSKSMLYLQMNSLRVEDTAVYYCVKDGVHWGQGTLVTVSSGGGGSGGGGSEVQLVESGGGVVQPGRSLRLSCAASGFSFSGYGMHWVRQAPGKGLEWVAYISYDGSNKYYADSVKGRFTISRDNSKNTLYLQMNSLRAEDTAVYYCAKDPAWGLRLGESSSYDFDIWGQGTMVTVSS : 0.13 nM

// IC50 Toxin (nM), DU145 PSMA cells, 48 h value for HiPEG B-2-B-His6 val-cit-PAB-MMAE (VHH, HiPEG val-cit-PAB-MMAE attached via the C-terminal His6-tag, DAR 0.7) EVQLLESGGGLVQPGGSLRLSCAASGFSFSSYAMSWVRQAPGKGLEWVSSIGENDGTTDYADSVKGRFTISRDNSKSMLYLQMNSLRVEDTAVYYCVKDGVHWGQGTLVTVSSGGGGSGGGGSGGGGSGGGGSGGGGSGGGGSEVQLLESGGGLVQPGGSLRLSCAASGFSFSSYAMSWVRQAPGKGLEWVSSIGENDGTTDYADSVKGRFTISRDNSKSMLYLQMNSLRVEDTAVYYCVKDGVHWGQGTLVTVSS : 12.6 nM
